Every entry's value here was drawn from patent US8022102B2.

# assayed.system: human cloned 5-HT2C receptor (Homo sapiens)
# Construct: expressed in transfected cells; host or cells: CHO cells
# Sequence (P28335 33-458): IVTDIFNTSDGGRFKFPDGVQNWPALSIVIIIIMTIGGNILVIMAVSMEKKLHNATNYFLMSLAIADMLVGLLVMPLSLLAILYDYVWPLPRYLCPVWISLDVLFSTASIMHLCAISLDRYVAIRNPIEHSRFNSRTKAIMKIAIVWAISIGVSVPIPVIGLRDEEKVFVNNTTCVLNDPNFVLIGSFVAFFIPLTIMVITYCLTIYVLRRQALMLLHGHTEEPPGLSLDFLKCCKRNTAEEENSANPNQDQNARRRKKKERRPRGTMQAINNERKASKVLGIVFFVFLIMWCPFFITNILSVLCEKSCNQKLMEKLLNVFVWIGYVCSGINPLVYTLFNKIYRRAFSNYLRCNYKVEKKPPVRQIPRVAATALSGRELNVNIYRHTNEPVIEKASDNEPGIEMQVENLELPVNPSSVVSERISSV
# test: In vitro binding affinity for 5-HT2C receptor (radioligand binding)
# test.context: human cloned 5-HT2C receptor, radioligand binding; read-out: h-5HT2C (converted)
readout: IC50 (nM)

Guide cases for IC50, answers given:
>  <compound>
CNC[C@H]1CC2=C(O1)c1cc(F)ccc1Cc1ccccc12 [Compound 3]

>  <IC50 / nM>
6.31

$$$$
>  <compound>
O=C(C1CC1)N1CCN(CC2CC3=C(O2)c2cc(F)ccc2Cc2ccccc23)CC1 (centres unmarked) [Compound 57]

>  <IC50 / nM>
20

$$$$
>  <compound>
COc1ccc(C(=O)N2CCN(CC3CC4=C(O3)c3cc(F)ccc3Oc3ccccc34)CC2)cc1 (centres unmarked) [Compound 74]

>  <IC50 / nM>
100

$$$$
>  <compound>
CNC(=O)/C=C/CN(C)C[C@H]1CC2=C(O1)c1cc(F)ccc1Cc1ccccc12 [Compound 123]

>  <IC50 / nM>
2

$$$$
>  <compound>
O=S(=O)(c1ccccc1)N1CCN(CC2CC3=C(O2)c2cc(F)ccc2Cc2ccccc23)CC1 (centres unmarked) [Compound 48]

>  <IC50 / nM>
200

$$$$

a. CN(CC(=O)N(C)C)C[C@H]1CC2=C(O1)c1cc(F)ccc1Cc1ccccc12 [Compound 117]
b. CCCC(=O)N1CCN(CC2CC3=C(O2)c2cc(F)ccc2Oc2ccccc23)CC1 (centres unmarked) [Compound 56]
Task: Field: lower recorded IC50 (choose a or b ) Give the label of your selection.
Result: a
